Entries and their shrunken log2 fold change values follow.
# Tested on: Escherichia coli TOP10
# ASSAY: shrunken log2 fold change of peptide-encoding DNA abundance (4.5 h post-induction vs induction); higher = less antimicrobial activity (less host growth inhibition)
# CONDITION INFO: time post-induction: 4.5 h; library: site-saturation at positions 5, 18, 19, 20
Give your answer as a number; write no unit.

Here is how some sequences turned out for shrunken log2 fold change.
>  <PRIMARY SEQUENCE>
RRIRNRPPRLPRPRPRPHRHPRP

>  <TEST TARGET>
Escherichia coli TOP10

>  <MEASURED NUMBER>
-0.222

$$$$
>  <PRIMARY SEQUENCE>
RRIRSRPPRLPRPRPRPIWAPRP

>  <TEST TARGET>
Escherichia coli TOP10

>  <MEASURED NUMBER>
-0.133

$$$$
>  <PRIMARY SEQUENCE>
RRIRARPPRLPRPRPRPCWTPRP

>  <TEST TARGET>
Escherichia coli TOP10

>  <MEASURED NUMBER>
0.01

$$$$

Prompt line: Form field: reported shrunken log2 fold change of RRIRNRPPRLPRPRPRPMLNPRP
Response line: -0.21

Prompt line: Form field: reported shrunken log2 fold change of RRIRCRPPRLPRPRPRPVLPPRP
Response line: 2

Prompt line: Form field: reported shrunken log2 fold change of RRIRARPPRLPRPRPRPFICPRP
Response line: -0.1

Prompt line: Form field: reported shrunken log2 fold change of RRIRVRPPRLPRPRPRPGKFPRP
Response line: -0.17

###

# System: Escherichia coli TOP10
# ASSAY: shrunken log2 fold change of peptide-encoding DNA abundance (4.5 h post-induction vs induction); higher = less antimicrobial activity (less host growth inhibition)
# CONDITION INFO: time post-induction: 4.5 h; library: site-saturation at positions 5, 18, 19, 20
MEASURED ENDPOINT: shrunken log2 fold change

Here is how some sequences turned out for shrunken log2 fold change.
>  <PRIMARY SEQUENCE>
RRIRKRPPRLPRPRPRPSHVPRP

>  <MEASURED ENDPOINT>
shrunken log2 fold change

>  <RESULT>
0.164

$$$$
>  <PRIMARY SEQUENCE>
RRIRFRPPRLPRPRPRPLEDPRP

>  <MEASURED ENDPOINT>
shrunken log2 fold change

>  <RESULT>
-0.0439

$$$$

Prompt line: Form field: reported shrunken log2 fold change of RRIRVRPPRLPRPRPRPGAIPRP
Response line: 0.0707

Prompt line: Form field: reported shrunken log2 fold change of RRIRDRPPRLPRPRPRPMCYPRP
Response line: -0.0124

Prompt line: Form field: reported shrunken log2 fold change of RRIRKRPPRLPRPRPRPQDKPRP
Response line: -0.182

Prompt line: Form field: reported shrunken log2 fold change of RRIRMRPPRLPRPRPRPNFLPRP
Response line: -0.0651

Prompt line: Form field: reported shrunken log2 fold change of RRIRDRPPRLPRPRPRPEIYPRP
Response line: 0.0907

Prompt line: Form field: reported shrunken log2 fold change of RRIRFRPPRLPRPRPRPGWCPRP
Response line: 0.109

Prompt line: Form field: reported shrunken log2 fold change of RRIRARPPRLPRPRPRPSHIPRP
Response line: -0.523

Prompt line: Form field: reported shrunken log2 fold change of RRIRFRPPRLPRPRPRPCFRPRP
Response line: -0.45

Prompt line: Form field: reported shrunken log2 fold change of RRIRWRPPRLPRPRPRPRNTPRP
Response line: -0.0542

Prompt line: Form field: reported shrunken log2 fold change of RRIRARPPRLPRPRPRPPHEPRP
Response line: 1.29

Prompt line: Form field: reported shrunken log2 fold change of RRIRMRPPRLPRPRPRPKQYPRP
Response line: 0.146

Prompt line: Form field: reported shrunken log2 fold change of RRIRKRPPRLPRPRPRPPRIPRP
Response line: 0.323

###

Entries and their shrunken log2 fold change values follow.
# Test system: Escherichia coli TOP10
# ASSAY: shrunken log2 fold change of peptide-encoding DNA abundance (4.5 h post-induction vs induction); higher = less antimicrobial activity (less host growth inhibition)
# CONDITION INFO: time post-induction: 4.5 h; library: site-saturation at positions 5, 18, 19, 20
Give your answer as a number; write no unit.

>  <PRIMARY SEQUENCE>
RRIRSRPPRLPRPRPRPIDSPRP

>  <MEASURED ENDPOINT>
shrunken log2 fold change

>  <MEASURED NUMBER>
-0.0241

$$$$

Prompt line: Form field: reported shrunken log2 fold change of RRIRHRPPRLPRPRPRPENPPRP
Response line: -0.277

Prompt line: Form field: reported shrunken log2 fold change of RRIRNRPPRLPRPRPRPFMMPRP
Response line: -0.181

###

# Test system: Escherichia coli TOP10
# ASSAY: shrunken log2 fold change of peptide-encoding DNA abundance (4.5 h post-induction vs induction); higher = less antimicrobial activity (less host growth inhibition)
# CONDITION INFO: time post-induction: 4.5 h; library: site-saturation at positions 5, 18, 19, 20
Entries and their shrunken log2 fold change values follow.
Give your answer as a number; write no unit.

Here is how some sequences turned out for shrunken log2 fold change.
>  <PRIMARY SEQUENCE>
RRIRARPPRLPRPRPRPGCVPRP

>  <shrunken log2 fold change>
0.851

$$$$
>  <PRIMARY SEQUENCE>
RRIRNRPPRLPRPRPRPCWHPRP

>  <shrunken log2 fold change>
-0.0656

$$$$
>  <PRIMARY SEQUENCE>
RRIRSRPPRLPRPRPRPTHVPRP

>  <shrunken log2 fold change>
-0.117

$$$$
>  <PRIMARY SEQUENCE>
RRIRQRPPRLPRPRPRPASCPRP

>  <shrunken log2 fold change>
0.182

$$$$
>  <PRIMARY SEQUENCE>
RRIRMRPPRLPRPRPRPHENPRP

>  <shrunken log2 fold change>
0.218

$$$$

Prompt line: Request: shrunken log2 fold change, test system Escherichia coli TOP10, entry RRIRNRPPRLPRPRPRPHSCPRP
Response line: -0.00198

Prompt line: Request: shrunken log2 fold change, test system Escherichia coli TOP10, entry RRIRRRPPRLPRPRPRPCVEPRP
Response line: -0.0155

###

# Tested on: Escherichia coli TOP10
# ASSAY: shrunken log2 fold change of peptide-encoding DNA abundance (4.5 h post-induction vs induction); higher = less antimicrobial activity (less host growth inhibition)
# CONDITION INFO: time post-induction: 4.5 h; library: site-saturation at positions 5, 18, 19, 20
Entries and their shrunken log2 fold change values follow.
Give your answer as a number; write no unit.

Here is how some sequences turned out for shrunken log2 fold change.
>  <PRIMARY SEQUENCE>
RRIRSRPPRLPRPRPRPACNPRP

>  <shrunken log2 fold change>
-0.285

$$$$
>  <PRIMARY SEQUENCE>
RRIRMRPPRLPRPRPRPKVCPRP

>  <shrunken log2 fold change>
0.0971

$$$$

Prompt line: Form field: reported shrunken log2 fold change of RRIRVRPPRLPRPRPRPPHQPRP
Response line: 0.0363

Prompt line: Form field: reported shrunken log2 fold change of RRIRWRPPRLPRPRPRPCISPRP
Response line: 0.169

Prompt line: Form field: reported shrunken log2 fold change of RRIRMRPPRLPRPRPRPHDQPRP
Response line: 0.351

Prompt line: Form field: reported shrunken log2 fold change of RRIRQRPPRLPRPRPRPWVIPRP
Response line: -0.134

Prompt line: Form field: reported shrunken log2 fold change of RRIRFRPPRLPRPRPRPGMGPRP
Response line: 0.102

###

# Tested on: Escherichia coli TOP10
# ASSAY: shrunken log2 fold change of peptide-encoding DNA abundance (4.5 h post-induction vs induction); higher = less antimicrobial activity (less host growth inhibition)
# CONDITION INFO: time post-induction: 4.5 h; library: site-saturation at positions 5, 18, 19, 20
Entries and their shrunken log2 fold change values follow.
Give your answer as a number; write no unit.

Prompt line: Form field: reported shrunken log2 fold change of RRIRARPPRLPRPRPRPGQCPRP
Response line: 0.203

Prompt line: Form field: reported shrunken log2 fold change of RRIRCRPPRLPRPRPRPMPNPRP
Response line: -0.368

###

# System: Escherichia coli TOP10;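 further: peptides expressed intracellularly from a pBAD plasmid library in pooled LB shake-flask culture, induced with 0.3% L-arabinose, DNA abundance read by NGS, three biological replicates, DESeq2 with apeglm shrinkage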
# ASSAY: shrunken log2 fold change of peptide-encoding DNA abundance (4.5 h post-induction vs induction); higher = less antimicrobial activity (less host growth inhibition)
# CONDITION INFO: time post-induction: 4.5 h; library: site-saturation at positions 5, 18, 19, 20
Entries and their shrunken log2 fold change values follow.

>  <PRIMARY SEQUENCE>
RRIRYRPPRLPRPRPRPDPTPRP

>  <shrunken log2 fold change>
-0.435

$$$$
>  <PRIMARY SEQUENCE>
RRIRKRPPRLPRPRPRPDKGPRP

>  <shrunken log2 fold change>
-0.022

$$$$
>  <PRIMARY SEQUENCE>
RRIRRRPPRLPRPRPRPITKPRP

>  <shrunken log2 fold change>
0.165

$$$$
>  <PRIMARY SEQUENCE>
RRIRRRPPRLPRPRPRPFGYPRP

>  <shrunken log2 fold change>
-0.018

$$$$

Prompt line: Form field: reported shrunken log2 fold change of RRIRQRPPRLPRPRPRPWCTPRP
Response line: -0.244

Prompt line: Form field: reported shrunken log2 fold change of RRIRMRPPRLPRPRPRPNYEPRP
Response line: -0.122

Prompt line: Form field: reported shrunken log2 fold change of RRIRKRPPRLPRPRPRPYCPPRP
Response line: 0.0231

Prompt line: Form field: reported shrunken log2 fold change of RRIRTRPPRLPRPRPRPQHSPRP
Response line: -0.183

Prompt line: Form field: reported shrunken log2 fold change of RRIRTRPPRLPRPRPRPNDVPRP
Response line: -0.0532

Prompt line: Form field: reported shrunken log2 fold change of RRIRTRPPRLPRPRPRPGPQPRP
Response line: 0.0198
